- System Tested: T1, TX1BP3, O14907
- T1 sequence (O14907 10-122, limits assumed, looked up): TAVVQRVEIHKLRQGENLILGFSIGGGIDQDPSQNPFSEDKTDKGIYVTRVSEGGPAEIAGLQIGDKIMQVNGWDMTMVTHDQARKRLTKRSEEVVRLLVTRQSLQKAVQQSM
- Assay Comment: holdup assay
- Parameters: key: below the threshold = too weak to quantify, mostly under pKd 3.1 to 4
- Test Settings: plain residues with an end cap or a label only (N-terminal biotin on a linker: ado-ado)
Reported Metric: pKd

Solved entries:
Binder | pKd
AQRARSPSDV [GPR12, P47775] | below the threshold
EDGESWEYQI [TRPV6, Q9H1D0] | below the threshold
EDLEDEWEVI [TECPR2, O15040] | below the threshold
RSSGGDDFWF [KCNV1, Q6PIU1] | below the threshold
RDPPAEWTRV [PTPN18, Q99952] | 4.06

Lookup: Query (binder): LAHVKHKEQI [AQP3, Q92482] ; field requested: pKd
Found: below the threshold
